# System: HepG2
# TEST DETAILS: cell viability relative to DMSO; higher = less toxic
# PARTICULARS: 72 h; 1 nM
OUTCOME MEASURE: cell viability (%)
Give the value, in units of %, as a plain number.

CCCCCCCC/C=C\CCCCCCCC(N)=O [oleamide]	104
c1cc(-c2cnn3cc(-c4ccc(OCCN5CCCCC5)cc4)cnc23)ccn1	103
Cc1ccc(C(=O)Nc2ccc(S(=O)(=O)O)c3cc(S(=O)(=O)O)cc(S(=O)(=O)O)c23)cc1NC(=O)c1cccc(NC(=O)Nc2cccc(C(=O)Nc3cc(C(=O)Nc4ccc(S(=O)(=O)O)c5cc(S(=O)(=O)O)cc(S(=O)(=O)O)c45)ccc3C)c2)c1	97.4

Please list cell viability recorded for the compound O=C(/C=C/c1ccc2c(c1)OCO2)N1CCCCC1 [ilepcimide]
102

Please list cell viability recorded for the compound `COC(=O)N1CC[C@@H]2[C@H]1CCC[C@@]2(O)C#Cc1cccc(C)c1`
102

Please list cell viability recorded for the compound N[C@@H](Cc1c[nH]c2ccc(O)cc12)C(=O)O [5-hydroxytryptophan]
102

Please list cell viability recorded for the compound CCCCCCOC(=O)CCC(=O)CN [hexaminolevulinate]
111

Please list cell viability recorded for the compound `CC1(COc2ccc3c(c2)ncn3-c2ccc3cccc(N4CCC(N)CC4)c3n2)COC1`
107

Please list cell viability recorded for the compound `S=C=Nc1cccc(NC(=S)NCCCCNC(=S)Nc2cccc(N=C=S)c2)c1`
107

Please list cell viability recorded for the compound `O=C(O)C1=CCCNC1`
102

* * *

# System: Vero E6
# TEST DETAILS: cell viability relative to DMSO; higher = less toxic
# PARTICULARS: 72 h; 10 nM
OUTCOME MEASURE: cell viability (%)
Give the value, in units of %, as a plain number.

Completed entries (count: 2):
N=C(N)NCCCC[C@@H]1NC(=O)CCSSC[C@@H](C(N)=O)NC(=O)[C@@H]2CCCN2C(=O)[C@H](Cc2c[nH]c3ccccc23)NC(=O)[C@H](CC(=O)O)NC(=O)CNC1=O [eptifibatide]	95.2
CC[C@H](C)[C@H](N)C1=N[C@H](C(=O)N[C@@H](CC(C)C)C(=O)N[C@H](CCC(=O)[O-])C(=O)N[C@H](C(=O)N[C@H]2CCCCNC(=O)[C@H](CC(N)=O)NC(=O)[C@@H](CC(=O)[O-])NC(=O)[C@H](Cc3cnc[nH]3)NC(=O)[C@@H](Cc3ccccc3)NC(=O)[C@H]([C@@H](C)CC)NC(=O)[C@@H](CCCN)NC2=O)[C@@H](C)CC)CS1.[Zn+2] [bacitracin-zinc]	89.9

Please list cell viability recorded for the compound NS(=O)(=O)c1cc(-c2nnn[nH]2)c(NCc2cccs2)cc1Cl [azosemide]
108

Please list cell viability recorded for the compound Cc1ncc(OC[C@@]2(c3cccc(F)c3)C[C@H]2C(=O)Nc2ccc(F)cn2)c(C)n1 [lemborexant]
98.1

Please list cell viability recorded for the compound COc1ccc2c(c1)C(=O)N(CCc1ccc(S(=O)(=O)NC(=O)NC3CCCCC3)cc1)C(=O)C2(C)C [gliquidone]
99.5

Please list cell viability recorded for the compound Nc1nc2c(ccc3ccccc32)s1 [SKA-31]
100

Please list cell viability recorded for the compound `CO[C@H]1CC[C@@H](C(=O)c2ccc3nc4c(cc3c2)CCCO4)CC1`
103

Please list cell viability recorded for the compound CCC[C@H](N[C@@H](C)C(=O)N1[C@H](C(=O)O)C[C@@H]2CCCC[C@@H]21)C(=O)O [perindoprilat]
104

Please list cell viability recorded for the compound `O=C(NO)c1cnc(N2CCN(S(=O)(=O)c3ccc4ccccc4c3)CC2)nc1`
97.5

* * *

# System: Calu-3
# TEST DETAILS: cell viability relative to DMSO; higher = less toxic
# PARTICULARS: 72 h; 10000 nM
Property: cell viability; scope: individual molecules
Give the value, in units of %, as a plain number.

Please list cell viability recorded for the molecule CCCCCCCCCCCCCCCC(=O)OC[C@H](O)[C@H]1OC(=O)C(O)=C1O [L-ascorbyl-6-palmitate]
113

Please list cell viability recorded for the molecule Cc1cccc(N(C)C(=S)Oc2ccc3ccccc3c2)c1 [tolnaftate]
101

* * *

# Test system: HepG2
# TEST DETAILS: drug sensitivity score (DSS) for viability; higher = more toxic; extreme values may be limits of the assay
# PARTICULARS: 72 h
OUTCOME MEASURE: drug sensitivity score
Reply: number alone, nothing else.

O=C(O)c1ccccc1	0
O=C(/C=C/c1ccc2c(c1)OCO2)N1CCCCC1 [ilepcimide]	0

Continue with the molecule presented below.
Please list drug sensitivity score recorded for the molecule `O=C(c1ccc(F)cc1)C1CCN(CCCCc2ccccc2)CC1`
0.6

* * *

# Test system: Vero E6
# TEST DETAILS: cell viability relative to DMSO; higher = less toxic
# PARTICULARS: 72 h; 10 nM
Property: cell viability; scope: individual compounds
Give the value, in units of %, as a plain number.

N[C@@H]1CONC1=O	104
COc1ccc2c(c1OC)C(=O)O[C@@H]2[C@H]1c2c(cc3c(c2OC)OCO3)CCN1C	102
CC(C)CNc1nc(-c2cccc3ncccc23)cn2c(-c3ccc(C(=O)NC4CC4)cc3)cnc12	94.5

Please list cell viability recorded for the compound `NC(=S)N/N=C/c1ncccc1N`
98.3

Please list cell viability recorded for the compound S=C=Nc1ccc(N=C=S)cc1 [bitoscanate]
93.6

* * *

# Tested on: Caco-2
# TEST DETAILS: cell viability relative to DMSO; higher = less toxic
# PARTICULARS: 72 h; 10 nM
OUTCOME MEASURE: cell viability (%)
Give the value, in units of %, as a plain number.

Completed entries (count: 6):
N#Cc1c(-c2ccccc2)cc(-c2cc(Br)ccc2O)[nH]c1=O	101
O=C1c2ccccc2C(=O)C1c1ccccc1	89.3
CO[C@H]1/C=C\C=C(/C)C(=O)NC2=CC(=O)C(NCCN(C)C)=C(C[C@@H](C)C[C@H](OC)[C@H](O)[C@@H](C)/C=C(\C)[C@@H]1OC(N)=O)C2=O	90.3
O=C(NO)c1cnc(N2CCN(S(=O)(=O)c3ccc4ccccc4c3)CC2)nc1	128
CSc1ccc(C(=O)N[C@@H]2CCCC[C@@H]2NC(=O)CNC(=O)c2cc(C(F)(F)F)ccc2NC(=O)NC(C)C)cc1	87.7
CN1CC(O)C2=C/C(=N/NC(N)=O)C(=O)C=C21 (centres undefined)	88.5

Give cell viability only, for Cc1ccc(C(=O)C(C)CN2CCCCC2)cc1 (centres undefined) , using Caco-2 data.
98.5

Give cell viability only, for `CN(C)c1cc(CNCC(C)(C)C)c(O)c2c1C[C@H]1C[C@H]3[C@H](N(C)C)C(O)=C(C(N)=O)C(=O)[C@@]3(O)C(O)=C1C2=O` , using Caco-2 data.
95.1

Give cell viability only, for Cc1cc(C)c(NC(=O)C2CC3CCC2C3)c(C)c1 (centres undefined) , using Caco-2 data.
82.4

* * *

Property: cell viability; scope: individual compounds
# Test system: Vero E6
# TEST DETAILS: cell viability relative to DMSO; higher = less toxic
# PARTICULARS: 72 h; 100 nM
Give the value, in units of %, as a plain number.

N#CN1CCCC1	98.2
CCN1CCCC1CNC(=O)c1cc(S(=O)(=O)CC)c(N)cc1OC (configuration not stated) [amisulpride]	99.4
C[C@@H](N)Cc1c[nH]c2ccc(O)cc12	94.4
O=C(c1ccc(F)cc1)C1CCN(CCn2c(=O)[nH]c3ccccc3c2=O)CC1	97.8
CN1CCC(OC(c2ccccc2)c2ccccc2)CC1	97.1
COc1c(C)c2c(c(O)c1C/C=C(\C)CCC(=O)O)C(=O)OC2	96.2

Please list cell viability recorded for the compound `C/C(=C(\CCOP(=O)(O)O)SC(=O)c1ccccc1)N(C=O)Cc1cnc(C)nc1N`
98.9

Please list cell viability recorded for the compound `COC(=O)N1CC[C@@H]2[C@H]1CCC[C@@]2(O)C#Cc1cccc(C)c1`
106

* * *

# Test system: Caco-2
# TEST DETAILS: drug sensitivity score (DSS) for viability; higher = more toxic; extreme values may be limits of the assay
# PARTICULARS: 72 h
OUTCOME MEASURE: drug sensitivity score
Reply: number alone, nothing else.

O=C(c1c2ccccc2cc2ccccc12)N1CCC(N2CCC[C@@H](C(=O)N3CCOCC3)C2)CC1	0
C=CC1=C(C)C2=CC3=NC(=C(CC(=O)O)C4=NC(=C(C)C4=C(O)O)C=c4[nH]c(c(C)c4CC)=CC1=N2)C(CCC(=O)O)C3C (configuration not stated)	0

Give drug sensitivity score only, for `Clc1ccc2c(c1)N=C(N1CCNCC1)c1ccccc1N2` , using Caco-2 data.
0

Give drug sensitivity score only, for `CC(C)(C)[C@]1(O)CCN2C[C@H]3c4ccccc4CCc4cccc(c43)[C@@H]2C1` , using Caco-2 data.
0

Give drug sensitivity score only, for CCn1cc(C(=O)O)c(=O)c2cc(F)c(N3CCNC(C)C3)c(F)c21 (configuration not stated) , using Caco-2 data.
0

Give drug sensitivity score only, for `CCc1ccc(OCc2ccccc2C(=O)Nc2ccc3nc(C)cc(N)c3c2)cc1` , using Caco-2 data.
6.8

Give drug sensitivity score only, for `C=Cc1cc(O)cc2nc(-c3ccc(O)c(F)c3)oc12` , using Caco-2 data.
0.7
